Collected Mean % WT Binding values appear next to each entry.
Target: human CD33 variant R122S (human, UniProt P20138 18-364)
Sequence (P20138 18-364 R122S limits assumed): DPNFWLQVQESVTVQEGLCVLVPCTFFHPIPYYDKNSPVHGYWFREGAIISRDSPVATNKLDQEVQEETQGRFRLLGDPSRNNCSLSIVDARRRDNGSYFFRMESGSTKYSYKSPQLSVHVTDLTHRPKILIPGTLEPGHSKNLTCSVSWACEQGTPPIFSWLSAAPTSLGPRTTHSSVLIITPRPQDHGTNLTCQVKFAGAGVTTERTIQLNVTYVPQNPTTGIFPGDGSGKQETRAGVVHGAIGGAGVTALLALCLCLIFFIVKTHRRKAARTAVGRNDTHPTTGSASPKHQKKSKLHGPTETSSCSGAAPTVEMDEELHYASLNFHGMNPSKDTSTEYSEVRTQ
Assay: flow cytometry, IgG on cells expressing the mutant

Past entries and their recorded results:
# BINDER, Mean % WT Binding
measured = [
    ("Refmab #3 (antibody, human IgG1, V domains shown, Tested in IgG format; human IgG1 Fc silent (PG-LALA)) VH: QVQLVQSGAEVKKPGSSVKVSCKASGYTFTDYNMHWVRQAPGQGLEWIGYIYPYNGGTGYNQKFKSKATITADESTNTAYMELSSLRSEDTAVYYCARGRPAMDYWGQGTLVTVSS VL: DIQMTQSPSSLSASVGDRVTITCRASESVDNYGISFMNWFQQKPGKAPKLLIYAASNQGSGVPSRFSGSGSGTDFTLTISSLQPDDFATYYCQQSKEVPWTFGQGTKVEIK", "111 % of WT"),
    ("Refmab #2 (antibody, human IgG1, V domains shown, Tested in IgG format; human IgG1 Fc silent (PG-LALA)) VH: QVQLVQSGAEVKKPGSSVKVSCKASGGTFSDYAISWVRQAPGQGLEWMGRIIPILGVADYAQKFQGRVTITADKSTRTAYMELSSLRSEDTAVYYCARNWADAFDIWGQGTMVTVSS VL: DIQLTQSPSSLSASVGDRVTITCRASQGISSVLAWYQQKPGKAPKLLIYDASSLESGVPSRFSGSGSGTDFTLTISSLQPEDFATYYCQQFDSSITFGQGTKLEIK", "3.4 % of WT"),
    ("Refmab #4 (antibody, human IgG1, V domains shown, Tested in IgG format; human IgG1 Fc silent (PG-LALA)) VH: QVQLVQSGAEVKKPGESVKVSCKASGYTFTNYGMNWVKQAPGQGLEWMGWINTYTGEPTYADKFQGRVTMTTDTSTSTAYMEIRNLGGDDTAVYYCARWSWSDGYYVYFDYWGQGTSVTVSS VL: DIVMTQSPDSLTVSLGERTTINCKSSQSVLDSSTNKNSLAWYQQKPGQPPKLLLSWASTRESGIPDRFSGSGSGTDFTLTIDSPQPEDSATYYCQQSAHFPITFGQGTRLEIK", "90.2 % of WT"),
]

Briefly, Mean % WT Binding measured for Refmab #1 (antibody, human IgG1, V domains shown, Tested in IgG format; human IgG1 (Absolute Antibody hP67.6, Cat. No. Ab00283-10.0); also called hP67.6) VH: EVQLVQSGAEVKKPGSSVKVSCKASGYTITDSNIHWVRQAPGQSLEWIGYIYPYNGGTDYNQKFKNRATLTVDNPTNTAYMELSSLRSEDTAFYYCVNGNPWLAYWGQGTLVTVSS VL: DIQLTQSPSTLSASVGDRVTITCRASESLDNYGIRFLTWFQQKPGKAPKLLMYAASNQGSGVPSRFSGSGSGTEFTLTISSLQPDDFATYYCQQTKEVPWSFGQGTKVEVK : 111 % of WT
